src = patent US20240279318A1

test system: T1, AFP158/HLA-A*02:01 complex (human)
T1 construct: flowed over the chip in SPR; also called AFP158 pro
experiment summary: SPR, KD ratio to AS170036 VL1VH1;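 note: crude scFv captured on a sensor chip, peptide–HLA complex passed over at several concentrations, association then buffer dissociation, KD derived from on- and off-rates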
assay readout: Affinity increase (fold)
State just the number; it will be interpreted in fold.

Recorded Affinity increase (binder LY93I (scFv, AS170036 VL1VH1 scFv mutein) scFv: QSALTQPRSVSGSPGQSVTISCAGTSSDVGSENYVSWYQQHPGKAPKLMIYQVNKRASGVPDRFSGSKSGNTASLTISGLQAEDEADYYCASIRSSDHNIVFGGGTKLTVLGGGGSGGGGSGGGGSEVQLVESGGGLVQPGGSLRLSCAASGFTFSSYAMSWVRQAPGKGLEWVSTINSGTGSPYYADSVKGRFTISRDNSKNTLYLQMNSLRAEDTAVYYCAKNFFDGSWFLGPPAMDYWGQGTLVTVSSHHHHHH ): 0.6

Recorded Affinity increase (binder LD97A (scFv, AS170036 VL1VH1 scFv mutein) scFv: QSALTQPRSVSGSPGQSVTISCAGTSSDVGSENYVSWYQQHPGKAPKLMIYQVNKRASGVPDRFSGSKSGNTASLTISGLQAEDEADYYCASYRSSAHNIVFGGGTKLTVLGGGGSGGGGSGGGGSEVQLVESGGGLVQPGGSLRLSCAASGFTFSSYAMSWVRQAPGKGLEWVSTINSGTGSPYYADSVKGRFTISRDNSKNTLYLQMNSLRAEDTAVYYCAKNFFDGSWFLGPPAMDYWGQGTLVTVSSHHHHHH ): 0.5

Recorded Affinity increase (binder LD97F (scFv, AS170036 VL1VH1 scFv mutein) scFv: QSALTQPRSVSGSPGQSVTISCAGTSSDVGSENYVSWYQQHPGKAPKLMIYQVNKRASGVPDRFSGSKSGNTASLTISGLQAEDEADYYCASYRSSFHNIVFGGGTKLTVLGGGGSGGGGSGGGGSEVQLVESGGGLVQPGGSLRLSCAASGFTFSSYAMSWVRQAPGKGLEWVSTINSGTGSPYYADSVKGRFTISRDNSKNTLYLQMNSLRAEDTAVYYCAKNFFDGSWFLGPPAMDYWGQGTLVTVSSHHHHHH ): 0.5
